Give measured Ki for each item. Keep answers brief.
ASSAY SYSTEM: HCV NS3-NS4A protease (tNS3 with KK4A) (Hepatitis C virus genotype 1a)
Sequence (P27958 1027-1208): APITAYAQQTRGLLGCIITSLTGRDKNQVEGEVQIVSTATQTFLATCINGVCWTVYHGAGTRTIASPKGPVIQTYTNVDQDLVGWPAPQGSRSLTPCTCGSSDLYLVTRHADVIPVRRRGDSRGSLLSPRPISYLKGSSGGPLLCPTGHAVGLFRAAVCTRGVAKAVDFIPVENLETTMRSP
METHOD: HCV Ki assay (HPLC microbore separation of 5AB substrate and products)
Format: biochemical
RECORDED CONDITIONS: 25 nM tNS3, 25 μM KK4A, 25 μM 5AB substrate, 20 min at 30 C; read-out: Ki
*1 amine or outer side, *2 acyl side, *3 side chain or, on linkers, in order; H or OH if unused. Where a SMILES comes first, the peptide text is derived from it. [ ]: non-standard residue; d: D form. The star is where a group is joined. Pro(3S-Et) = CC[C@H]1CCN[C@@H]1C(=O)O; Pyrazinecarbonyl = O=C(c1cnccn1)*; X1 = CCCC(N[*:1])C(=O)C(=O)[*:2]; Chg = N[C@H](C(=O)O)C1CCCCC1

Lookup: Form field: reported Ki of CCCC(NC(=O)[C@@H]1[C@@H](C2CCCCC2)CCN1C(=O)[C@@H](NC(=O)[C@@H](NC(=O)c1cnccn1)C1CCCCC1)C(C)(C)C)C(=O)C(=O)NC1CC1 (some centres unmarked)
Found: < 0.1 µM

Lookup: Form field: reported Ki of `CCC[C@H](NC(=O)[C@@H]1[C@@H](C(C)C)CCN1C(=O)[C@@H](NC(=O)[C@@H](NC(=O)c1cnccn1)C1CCCCC1)C(C)C)C(=O)C(=O)NC1CC1`
Found: 0.1 to 0.5 µM

Lookup: Form field: reported Ki of CCCC(NC(=O)[C@@H]1[C@@H](CC)CCN1C(=O)[C@@H](NC(=O)[C@@H](NC(=O)c1cnccn1)C(C)C)C1CCCCC1)C(=O)C(=O)N[C@@H](Cc1ccccc1)C(=O)O (stereo partly drawn) [Compound 32] (Pyrazinecarbonyl-V[Chg][Pro(3S-Et)][X1]F-OH)
Found: 0.1 to 0.5 µM

Lookup: Form field: reported Ki of `CCC[C@H](NC(=O)[C@@H]1[C@@H](C2CCCC2)CCN1C(=O)[C@@H](NC(=O)[C@@H](NC(=O)c1cnccn1)C1CCCCC1)C(C)(C)C)C(=O)C(=O)NC1CC1`
Found: 0.1 to 0.5 µM

Lookup: Form field: reported Ki of CCCC(NC(=O)[C@@H]1[C@@H](CC)CCN1C(=O)[C@@H](NC(=O)[C@@H](NC(=O)c1cnccn1)C1CCCCC1)C1CCCCC1)C(=O)C(=O)NC1CC1 (some centres unmarked)
Found: 0.1 to 0.5 µM

Origin of the recorded values: patent US8618152B2
